Source of measurements: the supplement of paper PMC12350171

Test system: P. vulgatus RND KO
Test: growth AUC normalised to DMSO control (median) (fraction of control); higher = less growth inhibition, active = hit call of the paper
Conditions: 20 µM
Structures can show the parent of a compound that is named as a salt.
measure.name: growth AUC normalised to DMSO control

# compound, measure.name, endpoint.value
records = [
    ("COc1ccc(C(Cl)=C(c2ccc(OC)cc2)c2ccc(OC)cc2)cc1", "growth AUC normalised to DMSO control", 0.96),
    ("Cc1ccccc1OCC(O)CO (centres undefined)", "growth AUC normalised to DMSO control", 1.01),
    ("CC(=O)N1CCN(c2ccc(OCC3COC(Cn4ccnc4)(c4ccc(Cl)cc4Cl)O3)cc2)CC1 (centres undefined)", "growth AUC normalised to DMSO control", 0.955),
    ("O=C1c2ccccc2C(=O)C1c1ccccc1", "growth AUC normalised to DMSO control", 0.997),
    ("Clc1ccc(CSC(Cn2ccnc2)c2ccc(Cl)cc2Cl)cc1 (centres undefined) [Sulconazole nitrate]", "growth AUC normalised to DMSO control", 1.06),
    ("COC(=O)[C@H](c1ccccc1Cl)N1CCc2sccc2C1", "growth AUC normalised to DMSO control", 0.999),
    ("C=CCSCC1Nc2cc(Cl)c(S(N)(=O)=O)cc2S(=O)(=O)N1 (centres undefined) [Althiazide]", "growth AUC normalised to DMSO control", 1.04),
    ("CCCCc1oc2ccccc2c1C(=O)c1cc(I)c(OCCN(CC)CC)c(I)c1 [Amiodarone hydrochloride]", "growth AUC normalised to DMSO control", 1.02),
    ("Nc1ccc(O)c(C(=O)O)c1", "growth AUC normalised to DMSO control", 1),
    ("Cc1cc(=O)oc2cc(O)ccc12", "growth AUC normalised to DMSO control", 1.03),
    ("CCN(CC)CCNc1ccc(CO)c2sc3ccccc3c(=O)c12", "growth AUC normalised to DMSO control", 0.994),
    ("CC1=C(C(=O)O)N2C(=O)[C@@H](NC(=O)[C@H](N)c3ccccc3)[C@H]2SC1 [Cephalexin monohydrate]", "growth AUC normalised to DMSO control", 1.04),
    ("Clc1ccc(C(c2ccccc2Cl)C(Cl)Cl)cc1 (centres undefined)", "growth AUC normalised to DMSO control", 0.97),
    ("Cc1ccc(=O)n(-c2ccccc2)c1", "growth AUC normalised to DMSO control", 0.932),
    ("CN(C)CCN(Cc1cccs1)c1ccccn1 [Methapyrilene hydrochloride]", "growth AUC normalised to DMSO control", 1.01),
    ("CCOCCn1c(N2CCCN(C)CC2)nc2ccccc21 [Emedastine difumarate]", "growth AUC normalised to DMSO control", 1.03),
    ("COc1cc(OC)c(C(=O)CCCN2CCCC2)c(OC)c1 [Buflomedil hydrochloride]", "growth AUC normalised to DMSO control", 0.997),
    ("CC(C(=O)O)c1ccc(N2CC=CC2)c(Cl)c1 (centres undefined)", "growth AUC normalised to DMSO control", 1.08),
    ("CNC(=O)c1c(I)c(C(=O)NCC(=O)Nc2c(I)c(C(=O)O)c(I)c(C(=O)NCCO)c2I)c(I)c(N(C)C(C)=O)c1I", "growth AUC normalised to DMSO control", 1.01),
]

----------
Test system: S. enterica typhimurium tolC KO
Assay: growth AUC normalised to DMSO control (median) (fraction of control); higher = less growth inhibition, active = hit call of the paper
Conditions: 20 µM
Counter-ions that a name gives are not always drawn.

# molecule, target.of.assay, growth AUC normalised to DMSO control
records = [
    ("O=C(O)Cc1ccccc1Nc1c(Cl)cccc1Cl [Diclofenac sodium]", "S. enterica typhimurium tolC KO", 0.997),
    ("CCN1/C(=C/C=C/C=C/c2sc3ccccc3[n+]2CC)Sc2ccccc21 [Dithiazanine iodide]", "S. enterica typhimurium tolC KO", 0.695),
    ("O=C(c1ccc(F)cc1)C1CCN(CCn2c(=O)[nH]c3ccccc3c2=O)CC1 [Ketanserin tartrate hydrate]", "S. enterica typhimurium tolC KO", 0.997),
    ("CC(CN(C)C)C(C)(O)Cc1ccc(Cl)cc1 (centres undefined) [Clobutinol hydrochloride]", "S. enterica typhimurium tolC KO", 0.994),
    ("Oc1c(Cl)cc(Cl)cc1Sc1cc(Cl)cc(Cl)c1O", "S. enterica typhimurium tolC KO", 0.0167),
    ("C#C[C@]1(O)CC[C@H]2[C@@H]3CCC4=C(CCC(=O)C4)[C@H]3CC[C@@]21C", "S. enterica typhimurium tolC KO", 0.993),
    ("CN1CCC(=C2c3ccccc3CCc3sccc32)CC1 [Pizotifen malate]", "S. enterica typhimurium tolC KO", 0.963),
    ("CC(C)Cn1cnc2c(N)nc3ccccc3c21", "S. enterica typhimurium tolC KO", 0.994),
    ("COc1ccc2[nH]cc(CCNC(C)=O)c2c1", "S. enterica typhimurium tolC KO", 0.996),
]

----------
Test system: S. enterica typhimurium WT
Assay: growth AUC normalised to DMSO control (median) (fraction of control); higher = less growth inhibition, active = hit call of the paper
Conditions: 20 µM
Structures can show the parent of a compound that is named as a salt.
Possible outcomes: 1.0 = active, 0.0 = inactive

# molecule, target.of.assay, category.label
records = [
    ("O=C(N[C@H](CO)[C@H](O)c1ccc([N+](=O)[O-])cc1)C(Cl)Cl", "S. enterica typhimurium WT", 1.0),
    ("Cc1onc(-c2ccccc2)c1C(=O)N[C@@H]1C(=O)N2[C@@H]1SC(C)(C)[C@@H]2C(=O)O [Oxacillin sodium]", "S. enterica typhimurium WT", 0.0),
    ("CN(C(=O)C(Cl)Cl)c1ccc(OC(=O)c2ccco2)cc1 [Diloxanide furoate]", "S. enterica typhimurium WT", 0.0),
    ("CC(C)(C)NCC(O)CSc1nc(-c2ccc(C(N)=O)s2)cs1 (centres undefined) [Arotinolol hydrochloride]", "S. enterica typhimurium WT", 0.0),
]

----------
Test system: Salmonella enterica typhimurium
Experiment: growth AUC normalised to DMSO control (fraction of control); higher = less growth inhibition, active = hit call of the paper
Conditions: 20 µM
Structures can show the parent of a compound that is named as a salt.
Possible outcomes: True (active), False (inactive)

# molecule, category.label
records = [
    ("COc1ccc2cc(CCC(C)=O)ccc2c1", "False"),
    ("Cc1onc(-c2ccccc2)c1C(=O)N[C@@H]1C(=O)N2[C@@H]1SC(C)(C)[C@@H]2C(=O)O [Oxacillin sodium]", "False"),
    ("N[C@@H](C(=O)N[C@@H]1C(=O)N2C(C(=O)O)=C(Cl)CS[C@H]12)c1ccccc1 [Cefaclor hydrate]", "True"),
    ("CCN(CCCCOC(=O)c1ccc(OC)c(OC)c1)C(C)Cc1ccc(OC)cc1 (configuration not stated) [Mebeverine hydrochloride]", "False"),
    ("c1coc(CNc2ncnc3[nH]cnc23)c1", "False"),
    ("CC/C(=C(/CC)c1ccc(O)cc1)c1ccc(O)cc1", "False"),
    ("CO[C@@]1(NC(=O)Cc2cccs2)C(=O)N2C(C(=O)O)=C(COC(N)=O)CS[C@@H]21 [Cefoxitin sodium salt]", "True"),
    ("N[C@@H](Cc1cc(I)c(Oc2ccc(O)c(I)c2)c(I)c1)C(=O)O", "False"),
    ("CN1CCCN=C1/C=C/c1cccc(O)c1 [Oxantel pamoate]", "False"),
    ("CC(C)(O)c1ccccc1CC[C@@H](SCC1(CC(=O)O)CC1)c1cccc(/C=C/c2ccc3ccc(Cl)cc3n2)c1", "False"),
    ("CC(C[N+](C)(C)C)OC(N)=O (configuration not stated) [Bethanechol chloride]", "False"),
    ("CCC[C@@H]1C[C@@H](C(=O)N[C@@H]([C@H]2O[C@H](SC)[C@H](O)[C@@H](O)[C@H]2O)[C@@H](C)O)N(C)C1 [Lincomycin hydrochloride]", "True"),
    ("Nc1nc(N)nc(-c2cc(Cl)ccc2Cl)n1 [Irsogladine maleate]", "False"),
    ("Clc1ccc(CO/N=C(\\Cn2ccnc2)c2ccc(Cl)cc2Cl)c(Cl)c1 [Oxiconazole nitrate]", "False"),
    ("COc1cc(NC(C)CCCN)c2ncccc2c1 (configuration not stated) [Primaquine diphosphate]", "False"),
    ("CCCNC(C)C(=O)Nc1ccccc1C (configuration not stated) [Prilocaine hydrochloride]", "False"),
    ("CN[C@H](CC(C)C)C(=O)N[C@H]1C(=O)N[C@@H](CC(N)=O)C(=O)N[C@H]2C(=O)N[C@H]3C(=O)N[C@H](C(=O)N[C@H](C(=O)O)c4cc(O)cc(O)c4-c4cc3ccc4O)[C@H](O)c3ccc(c(Cl)c3)Oc3cc2cc(c3O[C@@H]2O[C@H](CO)[C@@H](O)[C@H](O)[C@H]2O[C@H]2C[C@](C)(N)[C@H](O)[C@H](C)O2)Oc2ccc(cc2Cl)[C@H]1O [Vancomycin hydrochloride]", "False"),
    ("Nc1ccn([C@H]2CC[C@@H](CO)O2)c(=O)n1", "False"),
    ("O=C(NCC1CCCCN1)c1cc(OCC(F)(F)F)ccc1OCC(F)(F)F (configuration not stated) [Flecainide acetate]", "False"),
    ("CS(=O)(=O)OCCCCOS(C)(=O)=O", "False"),
    ("CN[C@@H]1[C@H](O[C@H]2[C@H](O[C@H]3[C@H](O)[C@@H](O)[C@H](N=C(N)N)[C@@H](O)[C@@H]3N=C(N)N)O[C@@H](C)[C@]2(O)C=O)O[C@@H](CO)[C@H](O)[C@H]1O [Streptomycin sulfate]", "False"),
    ("CC(=O)N(CC(C)C(=O)O)c1c(I)cc(I)c(N)c1I (configuration not stated)", "False"),
    ("O=C(Nc1ccc([N+](=O)[O-])cc1Cl)c1cc(Cl)ccc1O [Niclosamide]", "False"),
    ("C[C@@](Cc1ccc(O)c(O)c1)(NN)C(=O)O", "False"),
    ("CCN(CC)CCNC(=O)c1cc(Cl)c(N)cc1OC [Metoclopramide monohydrochloride]", "False"),
    ("Oc1c(Cl)cc(Cl)c2cccnc12", "True"),
    ("CC(C)(Oc1ccc(C2CC2(Cl)Cl)cc1)C(=O)O (configuration not stated) [Ciprofibrate]", "False"),
    ("CC(NCCC(c1ccccc1)c1ccccc1)c1ccccc1 (configuration not stated) [Fendiline hydrochloride]", "False"),
    ("Cn1c(=O)c2c(ncn2CCO)n(C)c1=O", "False"),
    ("C=CCc1ccccc1OCC(O)CNC(C)C (configuration not stated) [Alprenolol hydrochloride]", "False"),
    ("COCC(=O)Nc1c(I)c(C(=O)NCC(O)CO)c(I)c(C(=O)N(C)CC(O)CO)c1I (configuration not stated) [Iopromide]", "False"),
    ("CN(C)CC/C=C1/c2ccccc2COc2ccc(CC(=O)O)cc21 [Olopatadine hydrochloride]", "False"),
]
